Kindly supply the reported pIC50 values for the records listed here.
- target: Sodium-dependent serotonin transporter (Rattus norvegicus, UniProt P31652)
- Sequence (P31652 whole entry): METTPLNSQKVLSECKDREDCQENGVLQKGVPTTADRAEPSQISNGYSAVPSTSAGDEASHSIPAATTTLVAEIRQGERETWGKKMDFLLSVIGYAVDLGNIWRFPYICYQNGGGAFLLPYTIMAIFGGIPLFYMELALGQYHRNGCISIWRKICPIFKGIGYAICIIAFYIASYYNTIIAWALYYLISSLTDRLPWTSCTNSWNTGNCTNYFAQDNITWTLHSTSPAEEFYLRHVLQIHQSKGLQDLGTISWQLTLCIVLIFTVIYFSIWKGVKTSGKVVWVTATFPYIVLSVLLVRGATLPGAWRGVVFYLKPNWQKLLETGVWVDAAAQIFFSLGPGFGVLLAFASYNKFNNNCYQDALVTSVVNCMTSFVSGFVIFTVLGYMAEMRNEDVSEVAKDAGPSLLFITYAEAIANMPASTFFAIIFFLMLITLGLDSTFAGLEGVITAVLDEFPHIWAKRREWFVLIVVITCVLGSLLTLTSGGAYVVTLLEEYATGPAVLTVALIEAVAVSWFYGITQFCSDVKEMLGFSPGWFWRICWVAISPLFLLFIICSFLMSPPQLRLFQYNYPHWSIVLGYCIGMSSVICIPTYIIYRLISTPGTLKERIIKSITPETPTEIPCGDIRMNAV
- measurement.description: Displacement of [3H][…] from SET in rat cortical membranes
Convention used: pIC50 is expressed as -log10 of the molar concentration.

Task item: pIC50 lookup needed for CC(C)N1CCN(C(CN2CCN(CCCc3c(F)cccc3-c3ccccc3)CC2)c2ccc(F)cc2)CC1 (racemic) , thanks.
Reply: 5.84

Task item: pIC50 lookup needed for CC(C)N1CCN(C(CN2CCN(CCCc3ccccc3-c3ccc(F)cc3)CC2)c2ccc(F)cc2)CC1 (racemic) , thanks.
Reply: 5.87

Task item: pIC50 lookup needed for Cc1cccc(-c2ccccc2)c1CCCN1CCN(CC(c2ccc(F)cc2)N2CCN(C(C)C)CC2)CC1 (racemic) , thanks.
Reply: 5.30

Task item: pIC50 lookup needed for CC(C)N1CCN(C(CN2CCN(CCCc3c(Cl)cccc3-c3ccccc3)CC2)c2ccc(F)cc2)CC1 (racemic) , thanks.
Reply: 5.89

Task item: pIC50 lookup needed for CC(C)N1CCN(C(CN2CCN(CCCc3ccccc3-c3ccccc3)CC2)c2ccc(F)cc2)CC1 (racemic) , thanks.
Reply: 5.50

Task item: pIC50 lookup needed for CC(C)N1CCN(C(CN2CCN(CCCc3cc(F)ccc3-c3ccccc3)CC2)c2ccc(F)cc2)CC1 (racemic) , thanks.
Reply: 5.93

Task item: pIC50 lookup needed for CC(C)N1CCN(C(CN2CCN(CCCc3ccccc3-c3cccc(F)c3)CC2)c2ccc(F)cc2)CC1 (racemic) , thanks.
Reply: 5.68

Task item: pIC50 lookup needed for CC(C)N1CCN(C(CN2CCN(CCCc3cccc(F)c3-c3ccccc3)CC2)c2ccc(F)cc2)CC1 (racemic) , thanks.
Reply: 5.47

Task item: pIC50 lookup needed for CC(C)N1CCN(C(CN2CCN(CCCc3ccc(F)cc3-c3ccccc3)CC2)c2ccc(F)cc2)CC1 (racemic) , thanks.
Reply: 5.86

====

- target: UniProtKB P32245
- measurement.description: Displacement of [125I]Nle4-D-Phe7-alpha-MSH from human MC4 receptor expressed in COS1 cells
pIC50: −log10 of the molar value.
Classification field: 1 = pIC50 at or over 7; 0 = pIC50 under 7.

Task item: Is pIC50 at least 7? Consider CC(C)N1CCN(C(CN2CCN(CCCc3ccc(F)cc3-c3ccccc3)CC2)c2ccc(F)cc2)CC1 (racemic)
Reply: 1

Task item: Is pIC50 at least 7? Consider CC(C)N1CCN(C(CN2CCN(CCCc3ccccc3-c3cccc(F)c3)CC2)c2ccc(F)cc2)CC1 (racemic)
Reply: 1

Task item: Is pIC50 at least 7? Consider COc1ccc2ccccc2c1CCCCN1CCN(CC(c2ccc(F)cc2)N2CCN(C(C)C)CC2)CC1 (racemic)
Reply: 1

Task item: Is pIC50 at least 7? Consider CN1CCN(C(CN2CCN(CCCCc3cccc4ccccc34)CC2)c2ccccc2Br)CC1 (racemic)
Reply: 0

Task item: Is pIC50 at least 7? Consider CC(C)Oc1ccc2ccccc2c1CCCCN1CCN(CC(c2ccc(F)cc2)N2CCN(C(C)C)CC2)CC1 (racemic)
Reply: 1

====

Kindly supply the reported IC50 values for the records listed here.
- target: D(2) dopamine receptor (Rattus norvegicus, UniProt P61169)
- Sequence (P61169 whole entry): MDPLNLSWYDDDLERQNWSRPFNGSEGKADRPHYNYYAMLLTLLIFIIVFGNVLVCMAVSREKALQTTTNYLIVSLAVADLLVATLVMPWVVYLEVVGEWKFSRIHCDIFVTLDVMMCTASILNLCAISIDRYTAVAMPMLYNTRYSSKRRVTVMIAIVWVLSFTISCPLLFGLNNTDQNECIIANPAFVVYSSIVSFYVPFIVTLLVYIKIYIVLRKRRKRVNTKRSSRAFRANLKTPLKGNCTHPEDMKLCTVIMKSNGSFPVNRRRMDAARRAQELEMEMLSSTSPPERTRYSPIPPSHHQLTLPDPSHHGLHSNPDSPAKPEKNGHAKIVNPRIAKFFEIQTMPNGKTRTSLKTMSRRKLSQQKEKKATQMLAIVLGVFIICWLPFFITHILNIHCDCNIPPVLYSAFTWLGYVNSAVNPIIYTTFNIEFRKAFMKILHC
- measurement.description: Displacement of [3H]raclopride from dopamine D2 receptor in rat striatal membranes

Task item: Find IC50 (D(2) dopamine receptor (Rattus norvegicus, UniProt P61169)) for the entry CC(C)N1CCN(C(CN2CCN(CCCc3cc(F)ccc3-c3ccccc3)CC2)c2ccc(F)cc2)CC1 (racemic)
Reply: 721 nM

Task item: Find IC50 (D(2) dopamine receptor (Rattus norvegicus, UniProt P61169)) for the entry Cc1cccc(-c2ccccc2)c1CCCN1CCN(CC(c2ccc(F)cc2)N2CCN(C(C)C)CC2)CC1 (racemic)
Reply: > 1000 nM

Task item: Find IC50 (D(2) dopamine receptor (Rattus norvegicus, UniProt P61169)) for the entry CC(C)N1CCN(C(CN2CCN(CCCc3ccc(F)cc3-c3ccccc3)CC2)c2ccc(F)cc2)CC1 (racemic)
Reply: > 1000 nM

Task item: Find IC50 (D(2) dopamine receptor (Rattus norvegicus, UniProt P61169)) for the entry CC(C)N1CCN(C(CN2CCN(CCCc3c(Cl)cccc3-c3ccccc3)CC2)c2ccc(F)cc2)CC1 (racemic)
Reply: > 1000 nM

Task item: Find IC50 (D(2) dopamine receptor (Rattus norvegicus, UniProt P61169)) for the entry CC(C)N1CCN(C(CN2CCN(CCCc3ccccc3-c3cccc(F)c3)CC2)c2ccc(F)cc2)CC1 (racemic)
Reply: > 1000 nM

Task item: Find IC50 (D(2) dopamine receptor (Rattus norvegicus, UniProt P61169)) for the entry CC(C)N1CCN(C(CN2CCN(CCCc3ccccc3-c3ccccc3)CC2)c2ccc(F)cc2)CC1 (racemic)
Reply: 645 nM

Task item: Find IC50 (D(2) dopamine receptor (Rattus norvegicus, UniProt P61169)) for the entry CC(C)N1CCN(C(CN2CCN(CCCc3ccccc3-c3ccc(F)cc3)CC2)c2ccc(F)cc2)CC1 (racemic)
Reply: 721 nM

Task item: Find IC50 (D(2) dopamine receptor (Rattus norvegicus, UniProt P61169)) for the entry CC(C)N1CCN(C(CN2CCN(CCCc3c(F)cccc3-c3ccccc3)CC2)c2ccc(F)cc2)CC1 (racemic)
Reply: > 1000 nM

Task item: Find IC50 (D(2) dopamine receptor (Rattus norvegicus, UniProt P61169)) for the entry CC(C)N1CCN(C(CN2CCN(CCCc3cccc(F)c3-c3ccccc3)CC2)c2ccc(F)cc2)CC1 (racemic)
Reply: > 1000 nM

====

Kindly supply the reported pIC50 values for the records listed here.
- target: Melanocortin receptor 4 (Homo sapiens, UniProt P32245)
- Sequence (P32245 whole entry): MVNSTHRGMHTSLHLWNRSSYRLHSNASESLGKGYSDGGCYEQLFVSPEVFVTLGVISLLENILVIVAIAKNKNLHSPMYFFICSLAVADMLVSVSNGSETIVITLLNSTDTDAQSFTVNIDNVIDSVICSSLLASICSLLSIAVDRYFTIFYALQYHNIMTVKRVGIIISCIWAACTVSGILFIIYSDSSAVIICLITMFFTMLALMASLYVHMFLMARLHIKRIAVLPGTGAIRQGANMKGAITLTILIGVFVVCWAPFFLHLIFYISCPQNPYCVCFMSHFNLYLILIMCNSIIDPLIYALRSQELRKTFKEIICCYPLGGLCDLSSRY
- measurement.description: Displacement of [125I]Nle4-D-Phe7-alpha-MSH from human MC4 receptor expressed in COS1 cells
Convention used: pIC50 is expressed as -log10 of the molar concentration.

Task item: pIC50 lookup needed for CN1CCN(C(CN2CCN(CCCCc3cccc4ccccc34)CC2)c2ccc([N+](=O)[O-])cc2)CC1 (racemic) , thanks.
Reply: 6.58

Task item: pIC50 lookup needed for CC(C)N1CCN(C(CN2CCN(CCCc3cccc(F)c3-c3ccccc3)CC2)c2ccc(F)cc2)CC1 (racemic) , thanks.
Reply: 7.64

Task item: pIC50 lookup needed for CCOc1ccc2ccccc2c1CCCCN1CCN(CC(c2ccc(F)cc2)N2CCN(C(C)C)CC2)CC1 (racemic) , thanks.
Reply: 7.59

Task item: pIC50 lookup needed for CN1CCN(C(CN2CCN(CCCCc3cccc4ccccc34)CC2)c2cccc(Br)c2)CC1 (racemic) , thanks.
Reply: 6.25

Task item: pIC50 lookup needed for CC(C)N1CCN(C(CN2CCN(CCCc3ccc(-c4ccccc4)cc3)CC2)c2ccc(F)cc2)CC1 (racemic) , thanks.
Reply: 6.61

Task item: pIC50 lookup needed for CC(C)N1CCN(C(CN2CCN(CCc3ccccc3-c3ccccc3)CC2)c2ccc(F)cc2)CC1 (racemic) , thanks.
Reply: 6.73

Task item: pIC50 lookup needed for COc1ccc2ccccc2c1CCCCN1CCN(CC(c2ccc(F)cc2)N2CCN(C3CCCC3)CC2)CC1 (racemic) , thanks.
Reply: 7.33

====

- target: Melanocortin receptor 4 (Homo sapiens)
- measurement.description: Displacement of [125I]Nle4-D-Phe7-alpha-MSH from human MC4 receptor expressed in COS1 cells
observable: pIC50
Convention used: pIC50 is expressed as -log10 of the molar concentration.

Task item: pIC50 lookup needed for CC(C)N1CCN(C(CN2CCN(CCCc3ccccc3-c3ccc(Cl)cc3)CC2)c2ccc(F)cc2)CC1 (racemic) , thanks.
Reply: 7.27

Task item: pIC50 lookup needed for CC(C)N1CCN(C(CN2CCN(CCCc3ccccc3-c3ccccc3F)CC2)c2ccc(F)cc2)CC1 (racemic) , thanks.
Reply: 7.43

Task item: pIC50 lookup needed for CC(C)N1CCN(C(CN2CCN(CCCc3ccccc3-c3ccc(N(C)C)cc3)CC2)c2ccc(F)cc2)CC1 (racemic) , thanks.
Reply: 7.03

Task item: pIC50 lookup needed for CC(C)N1CCN(C(CN2CCN(CCCc3ccccc3-c3ccc(C(C)(C)C)cc3)CC2)c2ccc(F)cc2)CC1 (racemic) , thanks.
Reply: 7.00

Task item: pIC50 lookup needed for COc1ccc(-c2ccccc2CCCN2CCN(CC(c3ccc(F)cc3)N3CCN(C(C)C)CC3)CC2)cc1 (racemic) , thanks.
Reply: 7.37

Task item: pIC50 lookup needed for CN1CCN(C(CN2CCN(CCCc3cccc4ccccc34)CC2)c2ccc(F)cc2)CC1 (racemic) , thanks.
Reply: 6.68

Task item: pIC50 lookup needed for COc1ccc2ccccc2c1CCCCN1CCN(CC(c2ccc(F)cc2)N2CCN(C(C)C)CC2)CC1 (single isomer, unassigned; (-)) , thanks.
Reply: 8.09

Task item: pIC50 lookup needed for CN1CCN(C(CN2CCN(CCCc3ccc4ccccc4c3)CC2)c2ccc(F)cc2)CC1 (racemic) , thanks.
Reply: 5.92
